Test system: EKVX NSCLC
Test: NCI-60 one-dose screen, 48 h (100 = growth as untreated, 0 = no growth, -100 = all killed)
Details: 10 µM
Experimental: Growth inhibition of the EKVX human Non-Small Cell Lung tumor cell line is measured as a screen for anti-cancer activity. Cells are grown in 96 well plates and exposed to the test compound for 48 hours. Compounds are tested at a single concentration, which is 10^-5 M for most compounds. The reported endpoint is percent growth (GI% or GIPRCNT), where numbers from 0 - 100% represent growth inhibition, and numbers from -100% - 0 represent cell death. […]
The panel holds about 83,000 compounds, 20% with a hit somewhere; the sample as a whole holds those more often. The source made the active and inactive calls. The calls were made as follows: active = growth percent below 10; inactive = the rest.
endpoint: growth

Sample records with growth:
Cc1cccc(Cl)c1NC(=O)c1ccc2nc(NC(=O)NC3CCN(C)CC3)sc2c1	90.9% (inactive)
CCN1CCC(CCOC)(CN2c3ccccc3Sc3ccc(Cl)cc32)C1 (configuration not stated)	56.7% (inactive)

*Q* Endpoint output: growth of CC(C)=NNc1ncnc2c1ncn2C1OC(CO)C(O)C1O (configuration not stated) . Value?
*A* 43.7% (inactive)

*Q* Endpoint output: growth of Cc1ccc(Nc2nnc(-c3cc(-c4ccncc4)n(-c4ccccc4)n3)s2)cc1 . Value?
*A* 97.7% (inactive)

*Q* Endpoint output: growth of CCCCCCCCCCCC[n+]1ccc(C(N)=O)cc1 . Value?
*A* 22.2% (inactive)

---

compounds and their reported growth
System: NCI/ADR-RES ovarian
Assay: NCI-60 one-dose screen, 48 h (100 = growth as untreated, 0 = no growth, -100 = all killed)
Conditions: 10 µM
This is part of a sample that, as a whole, favours compounds with a hit. Of some 83,000 tested, about 20% had one in any assay.
I only need the number, in %, no unit after it.

*Q* Endpoint output: growth of COc1cc2c(cc1OC)N(CCO)C1=C(C(=O)OC1)C2c1ccc(Cl)c(Cl)c1 (configuration not stated) . Value?
*A* 104

*Q* Endpoint output: growth of CN(C)c1ccc(Cc2ccc(N(C)C)cc2Cl)c(Cl)c1 . Value?
*A* 101

*Q* Endpoint output: growth of CS(=O)(=O)Nc1ccc(Nc2c3ccccc3nc3cc([N+](=O)[O-])ccc23)cc1 . Value?
*A* 87

*Q* Endpoint output: growth of CN(C)CCNC(=O)c1cccn2c(=O)c3cc4ccccc4cc3nc12 . Value?
*A* 5.94

*Q* Endpoint output: growth of C=C(C(=O)c1ccccc1)C(NC(C)(C)C)c1ccccc1 (configuration not stated) . Value?
*A* -7

*Q* Endpoint output: growth of COc1ccc(-c2ccc(-c3ccc(C(=N)N)cn3)o2)cc1 . Value?
*A* 88.1

*Q* Endpoint output: growth of O=C(Nc1ccc(CN2CCc3nc4cc(O)c(O)cc4cc32)cc1)c1ccc(Cl)c(Cl)c1 . Value?
*A* 106

*Q* Endpoint output: growth of COc1ccc2c(c1)O/C(=C\c1ncc([N+](=O)[O-])n1C)C2=O . Value?
*A* 1.07

*Q* Endpoint output: growth of CCCCN(CCCC)CCCCCCCCC(O)c1cc2ccccc2c2ccccc12 (configuration not stated) . Value?
*A* 54.6

*Q* Endpoint output: growth of NC(=O)c1ccc(-c2cccc3c(=O)nc(N4CCOCC4)oc23)cc1 . Value?
*A* 97.3

*Q* Endpoint output: growth of COc1cc2c(cc1OCCCCCCN1CCN(CC(=O)Nc3ccc(Cl)cc3C(=O)c3ccccc3Cl)CC1)N=CC1CCCN1C2=O (configuration not stated) . Value?
*A* -60.8

*Q* Endpoint output: growth of O=c1c2ccccc2nc(SCCN2CCCCC2)n1CCc1ccccc1 . Value?
*A* 87.6

*Q* Endpoint output: growth of COc1ccc2c(c1)C(=O)c1c-2c(OCCN(C)C)nc2ccccc12 . Value?
*A* 22.8

*Q* Endpoint output: growth of COc1cc(-c2cc(/C=C/C(=O)c3ccc(Cl)c(Cl)c3)[nH]n2)cc(OC)c1OC . Value?
*A* 75.1

*Q* Endpoint output: growth of COc1cc(C(=C2O[C@@H]([C@H]3COC(C)(C)O3)[C@H]3OC(C)(C)O[C@@H]23)c2cc(OC)c(OC)c(OC)c2)cc(OC)c1OC . Value?
*A* 91.7

*Q* Endpoint output: growth of COC(=O)c1c(-c2ccccc2)csc1NC(=O)c1c(-c2ccccc2)noc1C . Value?
*A* 36.8

*Q* Endpoint output: growth of O=C1/C(=C\c2ccc(F)cc2)CN(C(=O)c2ccccc2)C/C1=C\c1ccc(F)cc1 . Value?
*A* 24.8
